molecular target: IGF2 (Homo sapiens, UniProt P01344); experiment: SPR (Biacore T200) of recombinant IGF2R domain 11 mutants on immobilised biotinylated IGF2; format: binding; parameters: purchased GroPep; settings: Table 4; MES-EP pH 6.5
Sequence (P01344 25-91): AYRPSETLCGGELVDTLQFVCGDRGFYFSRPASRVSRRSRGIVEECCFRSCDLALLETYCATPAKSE
# Kinetics kon annotations

{"Molecule": "AB5: IGF2R domain 11 with five AB loop mutations S1543A, E1544K, K1545G, G1546W, L1547G (YAKGWG) (protein) MKSNEHDDCQVTNPSTGHLFDLSSLSGRAGFTAAYAKGWGVYMSICGENENCPPGVGACFGQTRISVGKANKRLRYVDQVLQLVYKDGSPCPSKSGLSYKSVISFVCRPEAGPTNRPMLISLDKQTCTLFFSWHTPLACEQATECSV", "Kinetics kon [M⁻¹ s⁻¹]": "4.17e+06"}
{"Molecule": "AB3 Q1569R P1597H: domain 11 AB3 + Q1569R, P1597H (protein) MKSNEHDDCQVTNPSTGHLFDLSSLSGRAGFTAAYSKSGVVYMSICGENENCPPGVGACFGRTRISVGKANKRLRYVDQVLQLVYKDGSHCPSKSGLSYKSVISFVCRPEAGPTNRPMLISLDKQTCTLFFSWHTPLACEQATECSV", "Kinetics kon [M⁻¹ s⁻¹]": "1.99e+07"}
{"Molecule": "AB3: IGF2R domain 11 with AB loop mutations E1544K, K1545S, L1547V (YSKSGV) (protein) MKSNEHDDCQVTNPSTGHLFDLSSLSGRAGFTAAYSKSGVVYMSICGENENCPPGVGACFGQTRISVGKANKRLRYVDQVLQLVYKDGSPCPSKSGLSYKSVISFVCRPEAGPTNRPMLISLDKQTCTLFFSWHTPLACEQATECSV", "Kinetics kon [M⁻¹ s⁻¹]": "3.43e+06"}
